target: T1, Human Ang-2FD-hFc (human); experiment: blocking ELISA, 16.67 nM antibody, Ang-2FD-hFc to coated hTie-2-mFc
T1 construct: also called dimeric human Ang-2FD; human Ang-2FD protein conjugated to human IgG
T1 sequence (chain, as listed by the source limits assumed): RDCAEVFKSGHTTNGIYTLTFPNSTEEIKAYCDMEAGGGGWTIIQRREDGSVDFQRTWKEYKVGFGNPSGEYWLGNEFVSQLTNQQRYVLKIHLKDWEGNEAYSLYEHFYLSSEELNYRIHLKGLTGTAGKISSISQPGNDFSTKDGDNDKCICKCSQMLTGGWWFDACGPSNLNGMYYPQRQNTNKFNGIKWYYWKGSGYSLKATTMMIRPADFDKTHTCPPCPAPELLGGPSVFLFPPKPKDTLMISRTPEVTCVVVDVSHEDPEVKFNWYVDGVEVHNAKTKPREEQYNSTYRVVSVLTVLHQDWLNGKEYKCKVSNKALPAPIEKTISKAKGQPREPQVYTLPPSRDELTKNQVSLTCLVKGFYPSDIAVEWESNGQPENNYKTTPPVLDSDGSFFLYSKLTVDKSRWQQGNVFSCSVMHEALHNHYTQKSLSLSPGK
property_label: Percent Blocking of Ang-2FD Binding to Tie-2 (%)
Write the number in % without appending the unit.

Lab note: H1H695P (antibody, human IgG1, V domains shown, Human IgG1) VH: QVQLVESGGGVVQPGRSLRLSCAASGFTFSSYGMHWVRQAPGKGLEWVAVMWYDETNKYYADSVKGRFTISRDNSKNTLYLQMNSLRAEDTAVYYCARYSGYEDYYHGMDVWGQGTTVTVS VL: EIVMTQSPATPSVSPGERATLSCRASQSISSNLAWYQQKPGQAPRLLIYGASTRATGIPARFSGSGSGTEFTLTISSLQSEDFAVYYCQHYNNWITFGQGTRLEIK gave Percent Blocking of Ang-2FD Binding to Tie-2 of 98.4

Sure, the documented Percent Blocking of Ang-2FD Binding to Tie-2 for H1H693P (antibody, human IgG1, V domains shown, Human IgG1) VH: EVQLVESGGGLVQPGESLRLSCAASGFTFSSYAMSWVRQGPGKGLEWVSSISGSGGTTYYADSVEGRFTISRDNSKNTLYLHMNSLRAEDTAVYYCAKDFLDYSTYLAFDLWGQGTMVTVSS VL: DIQMTQSPSSVSASVGDRVTITCRASQGISSWLAWYQQKPGKAPKLLIYAASSLQSGVPSRFSGSGSGTDFTLTISSLQPEDFATYYCQQANSFPRTFGQGTKVEIK is 73.9

Lab book: Percent Blocking of Ang-2FD Binding to Tie-2 of H1H690P (antibody, human IgG1, V domains shown, Human IgG1) VH: EVQLVESGGGLVQPGESLRLSCAASGFTFSSYAMSWVRQGPGKGLEWVSSITGSGDTTYYADSVKGRFTISRDNSKNTLYLHMNSLRAEDTAVYYCAKDFLDYSTYLAFDLWGQGTMVTVSS VL: EIVLTQSPATLSLSPGERATLSCRASQSVSSYLTWYQQKPGQAPRLLSYDASNRATGIPARFSGSGSGTDFTLTISSLEPEDFAVYYCQQRSNWPLTFGGGTKVEIK noted as 97.2

Quick note, Percent Blocking of Ang-2FD Binding to Tie-2 for H1H704P (antibody, V domains shown, Human IgG1) VH: QVQLVESGGDVVQPGRSLRLSCAASGFTFSSYGMHWVRQAPGKGLEWVAIIWYDGSNKYYADSVKGRFTISRDNSKNTLYLQMNSLRVEDTAVYSCARDFSISSRHFDYWGQGTLVTVSS VL: DIQMTQSPSSLSASVGDRVTITCRASQAINNYLAWFQQKPGKAPKSLIYATSNLQSGVPSQFSGSGSGTDYTLTISSLQPEDFATYYCQQYYIYPITFGQGTRLEIK landed at 97

Briefly, Percent Blocking of Ang-2FD Binding to Tie-2 measured for H1H744N (antibody, V domains shown) VH: QVQLVQSGVEVKKPGASVKVSCKTSGYTFSNNGFSWVRQAPGQGLEWLGWISGYNGNTNYAQKFQGRVTMTTDTSTSTAYMELRTLRSDDTAVYYCARDQDYSNFHWLDPWGQGTLVTVAS VL: DIQMTQSPSSVSASVGDRVIITCRASQGLSSWLAWYQQKPGTAPKLLIHSASSLQTGVPSRFSGSGSGTEFALTINSLQPEDFGTYYCQQANSFPLTFGGGTRVEIK : 97.9
